biological target: rat TAAR1 (Rattus norvegicus); construct: expressed in transfected cells; host or cells: HEK293 (ATCC # CRL-1573), stably transfected with pIRESneo2 expression plasmid; assay: TAAR1 radioligand binding with [3H]-rac-2-(1,2,3,4-tetrahydro-1-naphthyl)-2-imidazoline, membranes of stably transfected HEK293 cells; settings: second value of the cell, read-out: Ki (μM) mouse/rat: rat
Endpoint name: Ki
Field note: include the unit after the figure.

# example entries with known answers
NC1=N[C@@H](CCc2ccc(NC(=O)C3CCCCC3)cc2)CO1 : 0.0036 µM
NC1=N[C@@H](CCc2ccc(NC(=O)c3ccc4ccccc4n3)cc2)CO1 : 0.0002 µM
Cc1ccc(C(=O)Nc2ccc(CC[C@H]3COC(N)=N3)cc2)s1 : 0.0007 µM
Cc1cnc(C(=O)Nc2ccc(CC[C@H]3COC(N)=N3)cc2)cn1 : 0.0033 µM
NC1=N[C@@H](CCc2ccc(NC(=O)c3ncoc3C3CC3)cc2)CO1 : 0.0028 µM
NC1=N[C@@H](CCc2ccc(NC(=O)c3ccc(Cl)s3)cc2)CO1 : 0.0001 µM
NC1=N[C@@H](CCc2ccc(NC(=O)c3ccn(C(F)F)n3)cc2)CO1 : 0.0023 µM
CCOc1cnc(C(=O)Nc2ccc(CC[C@@H]3N=C(N)O[C@H]3C)cc2)cn1 : 0.0035 µM

Consider the additional compound presented here.
Request: Report value: Ki, system: rat TAAR1 (Rattus norvegicus), compound: `C[C@@H]1OC(N)=N[C@H]1CCc1ccc(NC(=O)c2ccc(C(F)(F)F)cn2)cc1`
Result: 0.0021 µM

====

biological target: rat TAAR1 (Rattus norvegicus, UniProt Q923Y9); construct: expressed in transfected cells; host or cells: HEK293 (ATCC # CRL-1573), stably transfected with pIRESneo2 expression plasmid; experiment: TAAR1 radioligand binding with [3H]-rac-2-(1,2,3,4-tetrahydro-1-naphthyl)-2-imidazoline, membranes of stably transfected HEK293 cells; conditions: second value of the cell, read-out: Ki (μM) mouse/rat: rat
Sequence (Q923Y9 whole entry): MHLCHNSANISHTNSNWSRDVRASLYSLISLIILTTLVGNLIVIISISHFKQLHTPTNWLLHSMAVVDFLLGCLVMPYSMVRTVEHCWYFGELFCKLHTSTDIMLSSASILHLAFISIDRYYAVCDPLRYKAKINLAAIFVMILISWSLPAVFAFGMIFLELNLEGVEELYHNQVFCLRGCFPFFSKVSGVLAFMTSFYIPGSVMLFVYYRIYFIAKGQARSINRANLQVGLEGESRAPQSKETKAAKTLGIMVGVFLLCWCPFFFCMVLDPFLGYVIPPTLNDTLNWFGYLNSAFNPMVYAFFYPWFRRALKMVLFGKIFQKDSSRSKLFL
Would you mind telling me the reported Ki of each entry?

Study these solved cases before continuing.
COC(C(=O)Nc1ccc(CC[C@H]2COC(N)=N2)cc1)c1ccc(Br)cc1 (some centres unmarked) : 0.0049 µM
NC1=N[C@@H](CCc2ccc(NC(=O)Nc3ncc(Cl)cn3)cc2)CO1 : 0.0028 µM
CCc1cncc(C(=O)Nc2ccc(CC[C@H]3COC(N)=N3)cc2)n1 : 0.0024 µM
Cc1ocnc1C(=O)Nc1ccc(CC[C@@H]2N=C(N)O[C@H]2C)cc1 : 0.004 µM

Please look at the following compound next.
Request: In one line, give reported Ki of the entry `C[C@@H]1OC(N)=N[C@H]1CCc1ccc(NC(=O)c2ccc(Cl)cc2)cc1` .
Result: 0.0005 µM

====

biological target: mouse TAAR1 (Mus musculus, UniProt Q923Y8); construct: expressed in transfected cells; host or cells: HEK293 (ATCC # CRL-1573), stably transfected with pIRESneo2 expression plasmid; assay: TAAR1 radioligand binding with [3H]-rac-2-(1,2,3,4-tetrahydro-1-naphthyl)-2-imidazoline, membranes of stably transfected HEK293 cells; details: first value of the cell, read-out: Ki (μM) mouse/rat: mouse
Sequence (Q923Y8 whole entry): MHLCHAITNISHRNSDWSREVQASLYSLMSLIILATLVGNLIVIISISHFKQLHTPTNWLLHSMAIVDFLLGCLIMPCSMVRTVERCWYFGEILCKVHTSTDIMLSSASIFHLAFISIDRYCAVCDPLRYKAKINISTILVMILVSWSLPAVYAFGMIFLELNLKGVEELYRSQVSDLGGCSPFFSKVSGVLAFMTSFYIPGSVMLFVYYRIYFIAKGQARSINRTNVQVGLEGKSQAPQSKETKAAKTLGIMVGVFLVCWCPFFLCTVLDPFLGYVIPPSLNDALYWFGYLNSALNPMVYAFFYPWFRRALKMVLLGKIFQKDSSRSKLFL
For each entry below, report its Ki value.
Answers are plain numbers, in µM.

Some entries whose results are on file:
NC1=N[C@@H](CCc2ccc(NC(=O)c3ccc(F)cc3)cc2)CO1 : 0.0008
COc1cnc(C(=O)Nc2ccc(CC[C@H]3COC(N)=N3)cc2)cn1 : 0.0063
Cc1cc(C)nc(C(=O)Nc2ccc(CC[C@H]3COC(N)=N3)cc2)c1 : 0.0019
NC1=N[C@@H](CCc2ccc(NC(=O)c3cncc(Cl)c3)cc2)CO1 : 0.004
CCOc1cnc(C(=O)Nc2ccc(CC[C@@H]3N=C(N)O[C@H]3C)cc2)cn1 : 0.0014
COc1ccc(C(=O)Nc2ccc(CC[C@H]3COC(N)=N3)cc2)nc1 : 0.002
Cc1cnc(C(=O)Nc2ccc(CC[C@H]3COC(N)=N3)cc2)cn1 : 0.0039
NC1=N[C@@H](CCc2ccc(NC(=O)Cc3ccc(Cl)cc3)cc2)CO1 : 0.001

Field: next compound
Request: Item `CC(C)c1cncc(C(=O)Nc2ccc(CC[C@H]3COC(N)=N3)cc2)n1` : provide Ki
Result: 0.0009

====

target: mouse TAAR1 (Mus musculus, UniProt Q923Y8); construct: expressed in transfected cells; host or cells: HEK293 (ATCC # CRL-1573), stably transfected with pIRESneo2 expression plasmid; assay: TAAR1 radioligand binding with [3H]-rac-2-(1,2,3,4-tetrahydro-1-naphthyl)-2-imidazoline, membranes of stably transfected HEK293 cells; details: first value of the cell, read-out: Ki (μM) mouse/rat: mouse
Lab note: anything with Ki below 0.001 µM is marked 1.0; values at 0.001 µM or higher are marked 0.0.

NC1=N[C@@H](CCc2ccc(NC(=O)c3cnc(N4CCCCC4)nc3)cc2)CO1 : 1.0

Request: Item `NC1=N[C@@H](CCc2ccc(NC(=O)c3ccn(C(F)F)n3)cc2)CO1` : Ki beneath 0.001 µM, strictly?
Result: 0.0

Request: Given `NC1=N[C@@H](CCc2ccc(NC(=O)c3ccc4cccnc4n3)cc2)CO1` , is recorded Ki strictly lower than 0.001 µM?
Result: 0.0

Request: For this molecule, is Ki lower than 0.001 µM? `NC1=N[C@@H](CCc2ccc(NC(=O)c3ccc(Br)cn3)cc2)CO1`
Result: 1.0

Request: Take the molecule `NC1=N[C@@H](CCc2ccc(NC(=O)C3CC(F)(F)C3)cc2)CO1` and say whether its Ki is less than 0.001 µM.
Result: 0.0

Request: hey, is Ki for `NC1=N[C@@H](CCc2ccc(NC(=O)OCc3ccc(Cl)cc3)cc2)CO1` lower than 0.001 µM or not?
Result: 1.0

Request: Criterion: Ki strictly below 0.001 µM. Is it met by `CC[C@@H](C[C@H]1COC(N)=N1)c1ccc(NC(=O)Nc2ccc(F)cc2)cc1` ?
Result: 0.0

Request: API: query returns whether the molecule falls strictly under 0.001 µM in Ki. Query: `CCc1cnc(C(=O)Nc2ccc(CC[C@H]3COC(N)=N3)cc2)cn1`
Result: 0.0

Request: Consider CC(C(=O)Nc1ccc(CC[C@H]2COC(N)=N2)cc1)c1cccc(OC(F)(F)F)c1 (stereo partly drawn) . Does its Ki lie strictly below 0.001 µM?
Result: 1.0

Request: Does `NC1=N[C@@H](CCc2ccc(NC(=O)c3ccnc(-c4ccncc4)c3)cc2)CO1` have Ki strictly under 0.001 µM?
Result: 0.0

Request: Consider the molecule `NC1=N[C@@H](CCc2ccc(NC(=O)c3ccc(Cl)cn3)cc2)CO1` . Is its Ki strictly less than 0.001 µM?
Result: 1.0

Request: Dear colleague, could you confirm whether Ki of `COc1ccc(C(=O)Nc2ccc(CC[C@H]3COC(N)=N3)cc2)nc1Cl` falls below 0.001 µM? Thanks.
Result: 0.0

Request: Hello, I'm reviewing records and need to know if Ki of `NC1=N[C@@H](CCc2ccc(NC(=O)c3cccnc3F)cc2)CO1` is below 0.001 µM. Could you check?
Result: 0.0

Request: Given `NC1=N[C@@H](CCc2ccc(NC(=O)c3ccnc(Cl)c3F)cc2)CO1` , is recorded Ki strictly lower than 0.001 µM?
Result: 0.0

Request: Given `NC1=N[C@@H](CCc2ccc(NC(=O)c3ccc(Cl)cc3)cc2)CO1` , is recorded Ki strictly lower than 0.001 µM?
Result: 1.0

Request: Find out if reported Ki for `COc1ccc(C(=O)Nc2ccc(CC[C@H]3COC(N)=N3)cc2)cc1` is less than 0.001 µM
Result: 1.0

Request: For this molecule, is Ki lower than 0.001 µM? `C[C@@H]1OC(N)=N[C@H]1CCc1ccc(NC(=O)c2ccc(Cl)cc2)cc1`
Result: 1.0

====

biological target: mouse TAAR1 (Mus musculus, UniProt Q923Y8); construct: expressed in transfected cells; host or cells: HEK293 (ATCC # CRL-1573), stably transfected with pIRESneo2 expression plasmid; experiment: TAAR1 radioligand binding with [3H]-rac-2-(1,2,3,4-tetrahydro-1-naphthyl)-2-imidazoline, membranes of stably transfected HEK293 cells; conditions: first value of the cell, read-out: Ki (μM) mouse/rat: mouse
Endpoint name: Ki (µM)
Numbers only, in µM.

The cases that follow already have their Ki on record.
NC1=N[C@@H](CCc2ccc(NC(=O)c3ncc(C(F)(F)F)cc3Cl)cc2)CO1 [Example 101] : 0.0007
CO[C@H](C(=O)Nc1ccc(CC[C@H]2COC(N)=N2)cc1)c1ccccc1 [Example 74] : 0.009
NC1=N[C@@H](CCc2ccc(NC(=O)C3CCC(F)(F)CC3)cc2)CO1 [Example 40] : 0.0036

Provide Ki for all items below, preserving their order.
1. NC1=N[C@@H](CCc2ccc(NC(=O)c3ccc4ccccc4n3)cc2)CO1 [Example 91]
2. Cc1ccc(C(=O)Nc2ccc(CC[C@H]3COC(N)=N3)cc2)s1 [Example 201]
3. NC1=N[C@@H](CCc2ccc(NC(=O)c3ccc(Cl)cc3Cl)cc2)CO1 [Example 137]
4. NC1=N[C@@H](CCc2ccc(N3Cc4ccc(Cl)cc4C3=O)cc2)CO1 [Example 186]

Result:
[0.0005, 0.0005, 0.0003, 0.0029]
